Biological target: T1, NHERF1 PDZ2 domain (133-300) (human, UniProt O14745 133-300)
T1 sequence (looked up): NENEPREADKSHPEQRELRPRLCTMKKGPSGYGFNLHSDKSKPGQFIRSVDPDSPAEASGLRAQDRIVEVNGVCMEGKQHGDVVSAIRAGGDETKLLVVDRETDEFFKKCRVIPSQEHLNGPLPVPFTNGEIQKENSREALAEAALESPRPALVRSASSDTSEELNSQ
Assay: fluorescence polarisation
Ends that are not written are not given here. * marks the point of attachment. FITC = O=C1OC2(c3ccc(O)cc3Oc3cc(O)ccc32)c2ccc(NC(=S)*)cc21

{"columns": ["binder", "Kd / nM"],
 "data": [
  ["{FITC}-LQEEWETVM [FITC-labeled carboxy-terminal PTHR 9-residue peptide]", 600]
]}
